The following compounds are listed with their measured Herbicidal efficacy, Poa annua values.
# Tested on: Poa annua
# test_protocol: Pre-emergence treatment, herbicidal efficacy on annual bluegrass
# Format: in vivo
# particulars: 250 g/ha, 4 weeks after spraying, scale 0 to 10
metric: Herbicidal efficacy, Poa annua

compound: CC1(COCc2ccccc2F)CC(c2ccccc2[N+](=O)[O-])=NO1 (stereo not shown) [Reference A]
metric: Herbicidal efficacy, Poa annua
experimental_result: 5

compound: CC1(COCc2c(F)cccc2Cl)CC(c2ccccc2Cl)=NO1 (stereo not shown) [Reference B]
metric: Herbicidal efficacy, Poa annua
experimental_result: 8

compound: Cc1cccc(C2=NOC(C)(COCc3c(F)cccc3F)C2)c1 (stereo not shown) [Reference F]
metric: Herbicidal efficacy, Poa annua
experimental_result: 5

compound: CC1(COCc2c(F)cccc2F)CC(c2ccccc2Br)=NO1 (stereo not shown)
metric: Herbicidal efficacy, Poa annua
experimental_result: 8

compound: Cc1ccccc1C1=NOC(C)(COCc2c(F)cccc2F)C1 (stereo not shown)
metric: Herbicidal efficacy, Poa annua
experimental_result: 10

compound: CC1(COCc2c(F)cccc2Cl)CC(c2ccccc2)=NO1 (stereo not shown) [Reference H]
metric: Herbicidal efficacy, Poa annua
experimental_result: 2

compound: Cc1ccc(C2=NOC(C)(COCc3c(F)cccc3F)C2)cc1 (stereo not shown) [Reference G]
metric: Herbicidal efficacy, Poa annua
experimental_result: 8

compound: CC1(COCc2c(F)cccc2F)CC(c2ccccc2F)=NO1 (stereo not shown)
metric: Herbicidal efficacy, Poa annua
experimental_result: 10

compound: CC1(COCc2c(F)cccc2F)CC(c2ccccc2C(F)(F)F)=NO1 (stereo not shown)
metric: Herbicidal efficacy, Poa annua
experimental_result: 9

compound: CC1(COCc2c(F)cccc2F)CC(c2ccccc2Cl)=NO1 (stereo not shown)
metric: Herbicidal efficacy, Poa annua
experimental_result: 10

compound: Cc1ccccc1C1=NOC(C)(COCc2ccccc2F)C1 (stereo not shown) [Reference D]
metric: Herbicidal efficacy, Poa annua
experimental_result: 5

compound: Cc1ccccc1C1=NOC(C)(COCc2c(F)cccc2Cl)C1 (stereo not shown) [Reference E]
metric: Herbicidal efficacy, Poa annua
experimental_result: 9

compound: Cc1ccccc1C1=NOC(C)(COCc2ccccc2)C1 (stereo not shown) [Reference C]
metric: Herbicidal efficacy, Poa annua
experimental_result: 9

###

# System: Soybean
# test_protocol: Post-emergence treatment, phytotoxicity to soybean
# Assay type: in vivo
# particulars: post-emergence (about 3 leaf stage), 1,000 g/ha, 4 weeks after spraying, scale 0 to 10 (0: no effects, 10: complete death)
The following compounds are listed with their measured Phytotoxicity, Soybean values.
metric: Phytotoxicity, Soybean

compound: CC1(COCc2c(F)cccc2F)CC(c2ccccc2C(F)(F)F)=NO1 (stereo not drawn)
experimental_result: 2
--
compound: Cc1ccccc1C1=NOC(C)(COCc2c(F)cccc2Cl)C1 (stereo not drawn) [Reference E]
experimental_result: 1
--
compound: CC1(COCc2ccccc2F)CC(c2ccccc2[N+](=O)[O-])=NO1 (stereo not drawn) [Reference A]
experimental_result: 1
--
compound: CC1(COCc2c(F)cccc2F)CC(c2ccccc2F)=NO1 (stereo not drawn)
experimental_result: 1
--
compound: CC1(COCc2c(F)cccc2F)CC(c2ccccc2Cl)=NO1 (stereo not drawn)
experimental_result: 1
--
compound: CC1(COCc2c(F)cccc2Cl)CC(c2ccccc2Cl)=NO1 (stereo not drawn) [Reference B]
experimental_result: 2
--
compound: Cc1ccccc1C1=NOC(C)(COCc2c(F)cccc2F)C1 (stereo not drawn)
experimental_result: 2
--
compound: Cc1ccc(C2=NOC(C)(COCc3c(F)cccc3F)C2)cc1 (stereo not drawn) [Reference G]
experimental_result: 2
--
compound: CC1(COCc2c(F)cccc2Cl)CC(c2ccccc2)=NO1 (stereo not drawn) [Reference H]
experimental_result: 0

###

The following compounds are listed with their measured Herbicidal efficacy, Digitaria sanguinalis values.
# Tested on: Digitaria sanguinalis
# test_protocol: Pre-emergence treatment, herbicidal efficacy on large crabgrass
# Assay type: in vivo
# particulars: 62.5 g/ha, 4 weeks after spraying, scale 0 to 10
metric: Herbicidal efficacy, Digitaria sanguinalis

compound: Cc1ccccc1C1=NOC(C)(COCc2c(F)cccc2Cl)C1 (stereo not shown) [Reference E]
experimental_result: 0

compound: Cc1cccc(C2=NOC(C)(COCc3c(F)cccc3F)C2)c1 (stereo not shown) [Reference F]
experimental_result: 1

compound: Cc1ccccc1C1=NOC(C)(COCc2ccccc2)C1 (stereo not shown) [Reference C]
experimental_result: 0

compound: Cc1ccccc1C1=NOC(C)(COCc2ccccc2F)C1 (stereo not shown) [Reference D]
experimental_result: 0

###

# Test system: Digitaria sanguinalis
# test_protocol: Pre-emergence treatment, herbicidal efficacy on large crabgrass
# Type: in vivo
# particulars: 125 g/ha, 4 weeks after spraying, scale 0 to 10
The following molecules are listed with their measured Herbicidal efficacy, Digitaria sanguinalis values.
metric: Herbicidal efficacy, Digitaria sanguinalis

molecule: Cc1ccccc1C1=NOC(C)(COCc2ccccc2)C1 (centres unmarked) [Reference C]
experimental_result: 6
//
molecule: CC1(COCc2c(F)cccc2F)CC(c2ccccc2Cl)=NO1 (centres unmarked)
experimental_result: 10
//
molecule: CC1(COCc2c(F)cccc2Cl)CC(c2ccccc2Cl)=NO1 (centres unmarked) [Reference B]
experimental_result: 4
//
molecule: CC1(COCc2ccccc2F)CC(c2ccccc2[N+](=O)[O-])=NO1 (centres unmarked) [Reference A]
experimental_result: 2
//
molecule: Cc1cccc(C2=NOC(C)(COCc3c(F)cccc3F)C2)c1 (centres unmarked) [Reference F]
experimental_result: 2
//
molecule: CC1(COCc2c(F)cccc2F)CC(c2ccccc2Br)=NO1 (centres unmarked)
experimental_result: 10
//
molecule: Cc1ccccc1C1=NOC(C)(COCc2ccccc2F)C1 (centres unmarked) [Reference D]
experimental_result: 2
//
molecule: Cc1ccccc1C1=NOC(C)(COCc2c(F)cccc2Cl)C1 (centres unmarked) [Reference E]
experimental_result: 5

###

The following compounds are listed with their measured Herbicidal efficacy, Alopecurus myosuroides values.
# Tested on: Alopecurus myosuroides
# test_protocol: Pre-emergence treatment, herbicidal efficacy on blackgrass
# Type: in vivo
# particulars: 62.5 g/ha, 4 weeks after spraying, scale 0 to 10
metric: Herbicidal efficacy, Alopecurus myosuroides

compound: Cc1ccccc1C1=NOC(C)(COCc2c(F)cccc2F)C1 (stereo not shown)
experimental_result: 4
--
compound: Cc1ccccc1C1=NOC(C)(COCc2c(F)cccc2Cl)C1 (stereo not shown) [Reference E]
experimental_result: 0
--
compound: Cc1ccccc1C1=NOC(C)(COCc2ccccc2)C1 (stereo not shown) [Reference C]
experimental_result: 0
--
compound: Cc1ccc(C2=NOC(C)(COCc3c(F)cccc3F)C2)cc1 (stereo not shown) [Reference G]
experimental_result: 0
--
compound: CC1(COCc2ccccc2F)CC(c2ccccc2[N+](=O)[O-])=NO1 (stereo not shown) [Reference A]
experimental_result: 0
--
compound: CC1(COCc2c(F)cccc2F)CC(c2ccccc2Cl)=NO1 (stereo not shown)
experimental_result: 2
--
compound: CC1(COCc2c(F)cccc2F)CC(c2ccccc2F)=NO1 (stereo not shown)
experimental_result: 3
--
compound: Cc1cccc(C2=NOC(C)(COCc3c(F)cccc3F)C2)c1 (stereo not shown) [Reference F]
experimental_result: 0
--
compound: Cc1ccccc1C1=NOC(C)(COCc2ccccc2F)C1 (stereo not shown) [Reference D]
experimental_result: 0
--
compound: CC1(COCc2c(F)cccc2Cl)CC(c2ccccc2Cl)=NO1 (stereo not shown) [Reference B]
experimental_result: 0
--
compound: CC1(COCc2c(F)cccc2F)CC(c2ccccc2Br)=NO1 (stereo not shown)
experimental_result: 4
--
compound: CC1(COCc2c(F)cccc2F)CC(c2ccccc2C(F)(F)F)=NO1 (stereo not shown)
experimental_result: 5
--
compound: CC1(COCc2c(F)cccc2Cl)CC(c2ccccc2)=NO1 (stereo not shown) [Reference H]
experimental_result: 0

###

# System: grass weeds including barnyardrass, large crabgrass, and annual bluegrass
# test_protocol: Pre-emergence treatment, grass weeds overall
# Format: in vivo
# particulars: relative to reference compounds

compound: CC1(COCc2c(F)cccc2F)CC(c2ccccc2Cl)=NO1 (stereo not shown)
tested_system: grass weeds including barnyardrass, large crabgrass, and annual bluegrass
efficacy stronger than the References: about 4 times
//
compound: CC1(COCc2c(F)cccc2F)CC(c2ccccc2F)=NO1 (stereo not shown)
tested_system: grass weeds including barnyardrass, large crabgrass, and annual bluegrass
efficacy stronger than the References: about 4 times
//
compound: CC1(COCc2c(F)cccc2F)CC(c2ccccc2C(F)(F)F)=NO1 (stereo not shown)
tested_system: grass weeds including barnyardrass, large crabgrass, and annual bluegrass
efficacy stronger than the References: about 8 times
//
compound: Cc1ccccc1C1=NOC(C)(COCc2c(F)cccc2F)C1 (stereo not shown)
tested_system: grass weeds including barnyardrass, large crabgrass, and annual bluegrass
efficacy stronger than the References: about 8 times

###

# Test system: Echinochloa crusgalli
# test_protocol: Pre-emergence treatment, herbicidal efficacy on barnyardgrass
# Type: in vivo
# particulars: 125 g/ha, 4 weeks after spraying, scale 0 to 10
The following compounds are listed with their measured Herbicidal efficacy, Echinochloa crusgalli values.
metric: Herbicidal efficacy, Echinochloa crusgalli

compound: CC1(COCc2c(F)cccc2F)CC(c2ccccc2C(F)(F)F)=NO1 (centres unmarked) [Compound 5]
tested_system: Echinochloa crusgalli
experimental_result: 10

compound: CC1(COCc2c(F)cccc2Cl)CC(c2ccccc2)=NO1 (centres unmarked) [Reference H]
tested_system: Echinochloa crusgalli
experimental_result: 0

compound: CC1(COCc2c(F)cccc2F)CC(c2ccccc2Cl)=NO1 (centres unmarked) [Compound 2]
tested_system: Echinochloa crusgalli
experimental_result: 10

compound: CC1(COCc2c(F)cccc2F)CC(c2ccccc2F)=NO1 (centres unmarked) [Compound 4]
tested_system: Echinochloa crusgalli
experimental_result: 10

compound: CC1(COCc2c(F)cccc2Cl)CC(c2ccccc2Cl)=NO1 (centres unmarked) [Reference B]
tested_system: Echinochloa crusgalli
experimental_result: 5

From: patent US9439432B2
